From: the supplement of paper PMC8728848

- Measured On: Gal(a1-3)Gal(b1-3)GlcNAc(b1-3)GalNAc
- Assay Details: glycan array binding signal (z-score within array); higher = stronger binding
- Measurement Context: glycan notation: IUPAC condensed, linker removed
The sample as a whole holds a higher share of the strongest signals than the screen did.
Property Name: glycan array binding signal (z-score)

Please review the following examples before continuing.
{"columns": ["Binder", "glycan array binding signal (z-score)"],
 "data": [
  ["RVL (Remusatia vivipara), B5LYJ9 (protein) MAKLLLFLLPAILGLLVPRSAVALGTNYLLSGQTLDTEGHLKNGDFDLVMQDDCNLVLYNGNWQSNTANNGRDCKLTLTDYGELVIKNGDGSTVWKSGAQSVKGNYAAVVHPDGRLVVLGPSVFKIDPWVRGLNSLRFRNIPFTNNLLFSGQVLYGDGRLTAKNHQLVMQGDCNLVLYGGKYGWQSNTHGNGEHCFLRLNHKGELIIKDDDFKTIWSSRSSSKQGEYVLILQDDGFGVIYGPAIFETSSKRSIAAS", -0.166],
  ["LFA (Limax flavus) (protein) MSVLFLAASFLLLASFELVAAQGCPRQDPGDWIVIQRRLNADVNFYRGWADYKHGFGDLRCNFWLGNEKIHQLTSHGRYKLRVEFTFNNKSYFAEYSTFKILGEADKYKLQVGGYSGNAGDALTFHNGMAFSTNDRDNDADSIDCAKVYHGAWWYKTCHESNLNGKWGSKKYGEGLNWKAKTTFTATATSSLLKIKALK", 0.016],
  ["ACA (Amaranthus caudatus) (protein) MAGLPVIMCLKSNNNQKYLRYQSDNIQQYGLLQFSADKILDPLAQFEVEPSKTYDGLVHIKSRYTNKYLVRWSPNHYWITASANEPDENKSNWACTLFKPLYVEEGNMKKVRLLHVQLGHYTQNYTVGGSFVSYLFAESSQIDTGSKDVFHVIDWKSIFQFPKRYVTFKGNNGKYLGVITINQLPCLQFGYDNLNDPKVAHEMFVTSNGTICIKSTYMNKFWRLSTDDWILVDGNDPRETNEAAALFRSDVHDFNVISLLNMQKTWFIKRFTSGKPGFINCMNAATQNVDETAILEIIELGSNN", -0.395],
  ["LCA (Lens culinaris), P02870 (protein) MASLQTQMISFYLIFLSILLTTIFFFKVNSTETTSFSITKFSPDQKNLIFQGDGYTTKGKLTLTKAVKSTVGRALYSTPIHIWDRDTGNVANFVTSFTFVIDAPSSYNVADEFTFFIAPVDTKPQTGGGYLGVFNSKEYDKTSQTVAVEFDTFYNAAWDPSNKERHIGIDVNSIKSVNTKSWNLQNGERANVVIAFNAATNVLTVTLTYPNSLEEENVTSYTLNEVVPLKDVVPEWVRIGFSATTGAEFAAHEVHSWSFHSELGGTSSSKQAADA", -0.227]
]}

Turning to the following binder.
## Task Indicate the recorded glycan array binding signal (z-score) value for this binder: ASAL (Allium sativum), P83886 (protein) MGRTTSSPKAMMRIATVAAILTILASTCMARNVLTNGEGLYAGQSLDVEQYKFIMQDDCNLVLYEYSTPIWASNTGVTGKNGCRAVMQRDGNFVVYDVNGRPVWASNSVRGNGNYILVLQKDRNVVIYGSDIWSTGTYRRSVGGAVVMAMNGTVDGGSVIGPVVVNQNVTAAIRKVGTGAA
## Result -0.206
